Taken from patent US20240360227A1.

Quick list: pKd per entry.
Target: Recombinant human his-tagged IGF R extracellular domain protein (human) (UniProt P08069)
Assay: SPR, Ab captured via anti-huIgG Fc, dissociation at pH 6
The quantity pKd is defined as the negative base-10 logarithm of the molar concentration.

# annotated cases, reported pKd shown
[[record]]
binder = "VRDN-02048 (antibody, V domains shown) VH: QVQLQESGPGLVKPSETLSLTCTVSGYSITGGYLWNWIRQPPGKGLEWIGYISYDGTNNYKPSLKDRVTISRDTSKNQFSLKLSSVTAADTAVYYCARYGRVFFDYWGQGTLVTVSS VL: DIVMTQSPLSLPVTPGEPASISCRSSQSIVHSNGNTYLQWYLQKPGQSPQLLIYKVSNHLYGVPDRFSGSGSGTDFTLKISRVEAEDVGVYYCFQGSHVPWTFGQGTKVEIK"
assay_endpoint = "pKd"
quantitative_result = 8.99

[[record]]
binder = "VRDN-02035 (antibody, V domains shown) VH: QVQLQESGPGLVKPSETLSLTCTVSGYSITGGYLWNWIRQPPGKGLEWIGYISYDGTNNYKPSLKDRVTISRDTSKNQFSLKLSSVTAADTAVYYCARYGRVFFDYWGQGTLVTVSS VL: DIVMTQSPLSLPVTPGEPASISCRSSQSIHHSNGNTYLQWYLQKPGQSPQLLIYKVSNRLYGVPDRFSGSGSGTDFTLKISRVEAEDVGVYYCFQGSHVPWTFGQGTKVEIK"
assay_endpoint = "pKd"
quantitative_result = 8.91

[[record]]
binder = "VRDN-02047 (antibody, V domains shown) VH: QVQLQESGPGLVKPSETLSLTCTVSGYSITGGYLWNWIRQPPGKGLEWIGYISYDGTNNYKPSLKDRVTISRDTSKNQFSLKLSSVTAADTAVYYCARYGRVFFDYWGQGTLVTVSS VL: DIVMTQSPLSLPVTPGEPASISCRSSQSIVHSNGNTYLQWYLQKPGQSPQLLIYKVSHRLYGVPDRFSGSGSGTDFTLKISRVEAEDVGVYYCFQGSHVPWTFGQGTKVEIK"
assay_endpoint = "pKd"
quantitative_result = 8.83

[[record]]
binder = "VRDN-02031 (antibody, V domains shown) VH: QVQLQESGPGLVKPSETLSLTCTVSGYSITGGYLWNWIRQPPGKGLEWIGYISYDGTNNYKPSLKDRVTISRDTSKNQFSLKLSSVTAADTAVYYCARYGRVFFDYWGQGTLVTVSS VL: DIVMTQSPLSLPVTPGEPASISCRSHQSIVHSNGNTYLQWYLQKPGQSPQLLIYKVSNRLYGVPDRFSGSGSGTDFTLKISRVEAEDVGVYYCFQGSHVPWTFGQGTKVEIK"
assay_endpoint = "pKd"
quantitative_result = 8.91


// switching to the query binder
Consider VRDN-02039 (antibody, V domains shown) VH: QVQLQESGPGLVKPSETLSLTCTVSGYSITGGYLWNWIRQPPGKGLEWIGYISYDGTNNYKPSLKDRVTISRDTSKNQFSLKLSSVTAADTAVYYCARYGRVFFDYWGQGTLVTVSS VL: DIVMTQSPLSLPVTPGEPASISCRSSQSIVHSNGHTYLQWYLQKPGQSPQLLIYKVSNRLYGVPDRFSGSGSGTDFTLKISRVEAEDVGVYYCFQGSHVPWTFGQGTKVEIK . Its measured pKd is 8.87
